- Tested on: HELA cells (Acc57)
- Assay Protocol: Cytotoxicity assay (MTT reduction), HELA cells
- Type: cell-based
- Condition Summary: Hela cells
Where a SMILES comes first, the peptide text is derived from it.
Cytotoxicity LC50/GI50 Hela cells overview
Could you give me the number in µM? Just the number is fine.

CCCC[C@@H]1NC(=O)[C@H]([C@@H](C)O)NC(=O)[C@@H]2CSSC[C@H](NC(=O)[C@H]([C@@H](C)CC)NC(=O)[C@@H]3CCCN3C(=O)[C@@H]3CCCN3C(=O)[C@H](CC(=O)O)NC(=O)[C@H](CO)NC1=O)C(=O)N[C@@H](Cc1ccc(O)cc1)C(=O)N1CCC[C@@H]1C(=O)N1CCC[C@H]1C(=O)N[C@@H](Cc1ccccc1)C(=O)N2 [Ex. 23] (HELM PEPTIDE1{F.C.T.[Nle].S.D.P.P.I.C.Y.[dP].P}$PEPTIDE1,PEPTIDE1,2:R3-10:R3|PEPTIDE1,PEPTIDE1,1:R1-13:R2$$$V2.0) | 51

Prompt: # query: Cytotoxicity LC50/GI50 Hela cells of entry CCCC[C@@H]1NC(=O)[C@H]([C@@H](C)O)NC(=O)[C@@H]2CSSC[C@H](NC(=O)[C@H]([C@@H](C)CC)NC(=O)[C@@H]3CCCN3C(=O)[C@@H]3CCCN3C(=O)[C@H](CC(=O)O)NC(=O)[C@H](CO)NC1=O)C(=O)N[C@@H](CCCNC(=N)N)C(=O)N1CCC[C@@H]1C(=O)N1CCC[C@H]1C(=O)N[C@@H]([C@@H](C)CC)C(=O)N2 [Ex. 59] (HELM PEPTIDE1{I.C.T.[Nle].S.D.P.P.I.C.R.[dP].P}$PEPTIDE1,PEPTIDE1,2:R3-10:R3|PEPTIDE1,PEPTIDE1,1:R1-13:R2$$$V2.0)
Completion: 8

Prompt: Using the record for CCCC[C@@H]1NC(=O)[C@@H]2CCCN2C(=O)[C@@H]2CCCN2C(=O)[C@H](CC(=O)O)NC(=O)[C@H](CO)NC(=O)[C@H](CCCCN)NC(=O)[C@H]([C@@H](C)O)NC(=O)[C@@H]2CSSC[C@H](NC1=O)C(=O)N[C@@H](CO)C(=O)N1CCC[C@@H]1C(=O)N1CCC[C@H]1C(=O)N[C@@H](Cc1ccccc1)C(=O)N2 [Ex. 53] (HELM PEPTIDE1{F.C.T.K.S.D.P.P.[Nle].C.S.[dP].P}$PEPTIDE1,PEPTIDE1,2:R3-10:R3|PEPTIDE1,PEPTIDE1,1:R1-13:R2$$$V2.0) , report its Cytotoxicity LC50/GI50 Hela cells.
Completion: 63

Prompt: Any idea what Cytotoxicity LC50/GI50 Hela cells was measured for CCCC[C@@H]1NC(=O)[C@@H]2CCCN2C(=O)[C@H]2CCCN2C(=O)[C@H](CCC(N)=O)NC(=O)[C@@H]2CSSC[C@H](NC1=O)C(=O)N[C@@H]([C@@H](C)O)C(=O)N[C@@H](C)C(=O)N[C@@H](CO)C(=O)N[C@@H]([C@@H](C)CC)C(=O)N1CCC[C@H]1C(=O)N1CCC[C@H]1C(=O)N[C@@H](CCC(N)=O)C(=O)N2 [Ex. 91] (HELM PEPTIDE1{[Nle].C.T.A.S.I.P.P.Q.C.Q.[dP].P}$PEPTIDE1,PEPTIDE1,2:R3-10:R3|PEPTIDE1,PEPTIDE1,1:R1-13:R2$$$V2.0) ?
Completion: 79

Prompt: Entry C[C@@H](O)[C@@H]1NC(=O)[C@@H]2CSSC[C@H](NC(=O)[C@H](CC3CCCCC3)NC(=O)[C@@H]3CCCN3C(=O)[C@@H]3CCCN3C(=O)[C@H](CC(=O)O)NC(=O)[C@H](CO)NC(=O)[C@H](CCCCN)NC1=O)C(=O)N[C@@H](CO)C(=O)N1CCC[C@@H]1C(=O)N1CCC[C@H]1C(=O)N[C@@H](Cc1ccccc1)C(=O)N2 [Ex. 16] (HELM PEPTIDE1{F.C.T.K.S.D.P.P.[Cha].C.S.[dP].P}$PEPTIDE1,PEPTIDE1,2:R3-10:R3|PEPTIDE1,PEPTIDE1,1:R1-13:R2$$$V2.0) : reported Cytotoxicity LC50/GI50 Hela cells = ?
Completion: 94

Prompt: Query: Cytotoxicity LC50/GI50 Hela cells; subject: CCCC[C@@H]1NC(=O)[C@H](Cc2ccccc2)NC(=O)[C@H]2CCCN2C(=O)[C@H](Cc2ccc(O)cc2)NC(=O)[C@@H]2CSSC[C@H](NC1=O)C(=O)N[C@@H]([C@@H](C)O)C(=O)N[C@@H](C)C(=O)N[C@@H](CO)C(=O)N[C@@H]([C@@H](C)CC)C(=O)N1CCC[C@H]1C(=O)N1CCC[C@H]1C(=O)N[C@@H](CCC(N)=O)C(=O)N2 [Ex. 122] (HELM PEPTIDE1{[Nle].C.T.A.S.I.P.P.Q.C.Y.[dP].F}$PEPTIDE1,PEPTIDE1,2:R3-10:R3|PEPTIDE1,PEPTIDE1,1:R1-13:R2$$$V2.0)
Completion: 29

Prompt: Entry CCCC[C@@H]1NC(=O)[C@@H]2CCCN2C(=O)[C@@H](CC(=O)O)NC(=O)[C@H](Cc2ccc(O)cc2)NC(=O)[C@@H]2CSSC[C@H](NC1=O)C(=O)N[C@@H]([C@@H](C)O)C(=O)N[C@@H](C)C(=O)N[C@@H](CO)C(=O)N[C@@H]([C@@H](C)CC)C(=O)N1CCC[C@H]1C(=O)N1CCC[C@H]1C(=O)N[C@@H](CCC(N)=O)C(=O)N2 [Ex. 115] (HELM PEPTIDE1{[Nle].C.T.A.S.I.P.P.Q.C.Y.[dD].P}$PEPTIDE1,PEPTIDE1,2:R3-10:R3|PEPTIDE1,PEPTIDE1,1:R1-13:R2$$$V2.0) : reported Cytotoxicity LC50/GI50 Hela cells = ?
Completion: 51

Prompt: Give the measured Cytotoxicity LC50/GI50 Hela cells of CCCC[C@@H]1NC(=O)[C@H](CO)NC(=O)[C@H]2CCCN2C(=O)[C@H](Cc2ccc(O)cc2)NC(=O)[C@@H]2CSSC[C@H](NC1=O)C(=O)N[C@@H]([C@@H](C)O)C(=O)N[C@@H](C)C(=O)N[C@@H](CO)C(=O)N[C@@H]([C@@H](C)CC)C(=O)N1CCC[C@H]1C(=O)N1CCC[C@H]1C(=O)N[C@@H](CCC(N)=O)C(=O)N2 [Ex. 124] (HELM PEPTIDE1{A.S.I.P.P.Q.C.Y.[dP].S.[Nle].C.T}$PEPTIDE1,PEPTIDE1,7:R3-12:R3|PEPTIDE1,PEPTIDE1,1:R1-13:R2$$$V2.0) .
Completion: 40
